List of IC50 values.
molecular target: T1, human immunoglobulin E (hIgE) (human, UniProt P01854-1 1-428); experiment: competition ELISA, hIgE to coated hFcεRIα, pH 6
T1 construct: also called human IgE; Native IgE (Abcam)
T1 sequence (P01854 whole entry): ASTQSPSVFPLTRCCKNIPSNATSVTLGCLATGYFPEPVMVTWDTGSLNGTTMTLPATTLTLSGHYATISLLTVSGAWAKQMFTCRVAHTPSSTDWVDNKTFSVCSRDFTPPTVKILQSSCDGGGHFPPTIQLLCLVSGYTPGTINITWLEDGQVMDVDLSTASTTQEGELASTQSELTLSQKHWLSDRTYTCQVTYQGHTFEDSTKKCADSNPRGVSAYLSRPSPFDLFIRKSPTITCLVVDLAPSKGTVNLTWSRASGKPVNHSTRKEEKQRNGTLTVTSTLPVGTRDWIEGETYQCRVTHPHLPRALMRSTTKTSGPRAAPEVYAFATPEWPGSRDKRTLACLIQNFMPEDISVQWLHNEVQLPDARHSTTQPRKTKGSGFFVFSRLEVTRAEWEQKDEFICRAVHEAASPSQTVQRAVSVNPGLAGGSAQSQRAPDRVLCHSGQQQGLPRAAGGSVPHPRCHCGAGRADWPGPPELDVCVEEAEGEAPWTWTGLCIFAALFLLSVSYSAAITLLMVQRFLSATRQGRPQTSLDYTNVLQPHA

Here are 2 binders together with their reported answers.
18E2_H S35H_MG (antibody, V domains shown, germlined clone) VH: EVQLLESGGGLVQPGGSLRLSCAASGFTFSSYVMHWVRQAPGKGLEWVSSIYHDGSHTYYADFVKGRFTISRDNSKNTLYLQMNSLRAEDTAVYYCAKGTSYSGSYYYTDPFFGSWGQGTLVTVSS VL: SSELTQDPAVSVALGQTVRITCQGDRLGSRYIYWYQQKPGQAPVLVIYDDDRRPSGIPDRFSGSSSGNTASLTITGAQAEDEADYYCQSADSSGNPVFGGGTQLTVL: 0.671 µg/mL
13E4_MG (antibody, V domains shown, germlined clone; also called germlined 13E4) VH: EVQLLESGGGLVQPGGSLRLSCAASGFTFSSYVMSWVRQAPGKGLEWVSSIYHDGSHTYYADFVKGRFTISRDNSKNTLYLQMNSLRAEDTAVYYCAKGTSYSGSYYYTDPFFGSWGQGTLVTVSS VL: SSELTQDPAVSVALGQTVRITCQGGSLGSNYAYWYQQKPGQAPVLVIYDDDSRPSGIPDRFSGSSSGNTASLTITGAQAEDEADYYCQSADSNGNAVFGGGTQLTVL: 0.0633 µg/mL

[Q] Quick one: IC50 of 18B9His_MG (antibody, V domains shown) VH: EVQLLESGGGLVQPGGSLRLSCAASGFTFSSYVMSWVRQAPGKGLEWVSSIYSDGSHTYYADSVKGRFTISRDNSKNTLYLQMNSLRAEDTAVYYCAKNLEHYSGSYYYTDPRYDYWGQGTLVTVSS VL: SSELTQDPAVSVALGQTVRITCQGGSLGSSYVHWYQQKPGQAPVLVIYDGDSRPSGIPDRFSGSSSGNTASLTITGAQAEDEADYYCQSADSSGNAVFGGGTQLTVL ?
[A] 1.74 µg/mL
